// data source = patent US20220089592A1

System Under Test: IRAK4 (Homo sapiens)
Protocol Details: 2-hour 1 mM ATP IRAK4 Biochemical assay (as above, but with 100 pM IRAK4 and 1 mM ATP)
Conditions: IRAK4 MSD BIOCHEMICAL (1 mM ATP) IC50 (μM), 100 pM IRAK4, 2 hours
Kindly supply the reported IC50 values for the records listed here.
Respond with the figure and its unit, in that order.

**Query** Recorded IC50 for O=C(Nc1cn2cc(C3CCOCC3)nc2cc1OC1CCOCC1)c1cccc(C(F)F)n1 , please?
**Result** 0.002 µM

**Query** Recorded IC50 for CCOc1cc2nc(C[C@H]3CCOC3)cn2cc1NC(=O)c1cccc(C(F)F)n1 (single isomer, unassigned) , please?
**Result** 0.001 µM

**Query** Recorded IC50 for CC(C)Oc1c(NC(=O)c2cccnc2OC(F)F)cn2cc(C34COC(C)(C3)C4)nc2c1F , please?
**Result** 0.073 µM

**Query** Recorded IC50 for O=C(Nc1cn2cc(C3CCOCC3)nc2cc1OCC1(C(F)F)CCC1)c1cccc(C(F)F)n1 , please?
**Result** 0.001 µM

**Query** Recorded IC50 for CCOc1cc2nc(CC3CCOC3)cn2cc1NC(=O)c1cccc(OC)n1 (stereo not drawn) , please?
**Result** 0.009 µM

**Query** Recorded IC50 for CCCOc1nc(NC(=O)c2cccc(C(F)F)n2)cn2cc(C3CCOCC3)nc12 [Example 476, 2,2,2-trifluoroacetate] , please?
**Result** 0.006 µM

**Query** Recorded IC50 for O=C(Nc1cn2cc(C3CCOCC3)nc2c(OCC(F)(F)F)n1)c1cccc(C(F)F)n1 , please?
**Result** 0.038 µM

**Query** Recorded IC50 for CC1(COc2cc3nc(C4CCOCC4)cn3cc2NC(=O)c2cccc(C(F)(F)F)n2)COC1 , please?
**Result** 0.009 µM

**Query** Recorded IC50 for CC1CCC(Oc2cc3nc(C4CCOCC4)cn3cc2NC(=O)c2cccc(C(F)F)n2)C1 (stereo not drawn) , please?
**Result** 0.001 µM

**Query** Recorded IC50 for CCOc1cc2nc([C@@H](F)[C@@H]3CCOC3)cn2cc1NC(=O)c1cccc(C(F)(F)F)n1 (single isomer, unassigned) , please?
**Result** 0.002 µM

**Query** Recorded IC50 for COc1ncccc1C(=O)Nc1cn2cc(C34COC(C)(C3)C4)nc2c(F)c1OC1CCC1 [Example 436, 2,2,2-trifluoroacetate] , please?
**Result** 0.029 µM

**Query** Recorded IC50 for CCCOc1nc(NC(=O)c2ccccc2OC)cn2cc(C34COC(C)(C3)C4)nc12 , please?
**Result** 0.011 µM

**Query** Recorded IC50 for CCOc1nc2nc(C34COC(C)(C3)C4)cn2cc1NC(=O)c1cccc(C(F)F)n1 , please?
**Result** 0.001 µM

**Query** Recorded IC50 for CCOc1cc2nc(C3CC34CCOC4)cn2cc1NC(=O)c1cccc(C(F)F)n1 (mixture of isomers) , please?
**Result** 0.004 µM

**Query** Recorded IC50 for COc1cc(NC(=O)c2cccc(C(F)F)n2)cn2cc(C3CCCOC3)nc12 (racemic) [Example 268] , please?
**Result** 0.002 µM

**Query** Recorded IC50 for Cc1cccc(C(=O)Nc2cn3cc(C45COC(C)(C4)C5)nc3cc2C(F)F)n1 [Example 392, 2,2,2-trifluoroacetate] , please?
**Result** 0.008 µM

**Query** Recorded IC50 for CCOc1cc2nc(CC3CCOC3)cn2cc1NC(=O)c1ccc2c(n1)CCC2 (stereo not drawn) , please?
**Result** 0.026 µM

**Query** Recorded IC50 for CCOc1cc2nc(C3CCOCC3)cn2cc1NC(=O)c1cccc(C(C)(F)F)n1 , please?
**Result** 0.001 µM

**Query** Recorded IC50 for COc1ccccc1C(=O)Nc1cn2cc(C34COC(CF)(C3)C4)nc2c(OC(C)C)n1 [Example 483, 2,2,2-trifluoroacetate] , please?
**Result** 0.022 µM

**Query** Recorded IC50 for Cn1ccc(C(=O)Nc2cn3cc(C45COC(C)(C4)C5)nc3cc2OC(F)F)n1 [Example 397, 2,2,2-trifluoroacetate] , please?
**Result** 0.021 µM

**Query** Recorded IC50 for CCOc1cc2nc(CN3CCCC3=O)cn2cc1NC(=O)c1cccc(C(F)F)n1 , please?
**Result** 0.012 µM

**Query** Recorded IC50 for CCOc1cc(NC(=O)c2cccc(C(F)F)n2)cn2cc(C3CCCOC3)nc12 (single isomer, unassigned) [Example 286] , please?
**Result** 0.005 µM

**Query** Recorded IC50 for COc1cccn2ncc(C(=O)Nc3cn4cc(C56COC(C)(C5)C6)nc4c(OC(C)C)n3)c12 , please?
**Result** 0.002 µM

**Query** Recorded IC50 for COc1ncccc1C(=O)Nc1cn2cc(C34COC(C)(C3)C4)nc2nc1OC(C)C , please?
**Result** 0.001 µM

**Query** Recorded IC50 for CCOc1cc2nc([C@@H]3C[C@H]3F)cn2cc1NC(=O)c1cccc(C(F)F)n1 (stereo in doubt) , please?
**Result** 0.005 µM

**Query** Recorded IC50 for CCOc1cc2nc(C3CCOCC3)cn2cc1NC(=O)c1scc2c1OCCO2 , please?
**Result** 0.011 µM

**Query** Recorded IC50 for CCOc1cc2nc([C@]34CCOC[C@H]3C4)cn2cc1NC(=O)c1cccc(C(F)F)n1 (relative stereo) , please?
**Result** 0.001 µM

**Query** Recorded IC50 for CCOc1cc2nc(COC)cn2cc1NC(=O)c1cccc(C(F)(F)F)n1 , please?
**Result** 0.014 µM

**Query** Recorded IC50 for CCOc1cc2nc(CC3CCS(=O)(=O)C3)cn2cc1NC(=O)c1cccc(C(F)F)n1 (stereo not drawn) , please?
**Result** 0.001 µM

**Query** Recorded IC50 for CC(C)Oc1c(NC(=O)c2ccnc3ccnn23)cn2cc(C34COC(C)(C3)C4)nc2c1F , please?
**Result** 0.013 µM

###

System Under Test: IRAK4 (Homo sapiens, UniProt Q9NWZ3)
Sequence (Q9NWZ3 whole entry): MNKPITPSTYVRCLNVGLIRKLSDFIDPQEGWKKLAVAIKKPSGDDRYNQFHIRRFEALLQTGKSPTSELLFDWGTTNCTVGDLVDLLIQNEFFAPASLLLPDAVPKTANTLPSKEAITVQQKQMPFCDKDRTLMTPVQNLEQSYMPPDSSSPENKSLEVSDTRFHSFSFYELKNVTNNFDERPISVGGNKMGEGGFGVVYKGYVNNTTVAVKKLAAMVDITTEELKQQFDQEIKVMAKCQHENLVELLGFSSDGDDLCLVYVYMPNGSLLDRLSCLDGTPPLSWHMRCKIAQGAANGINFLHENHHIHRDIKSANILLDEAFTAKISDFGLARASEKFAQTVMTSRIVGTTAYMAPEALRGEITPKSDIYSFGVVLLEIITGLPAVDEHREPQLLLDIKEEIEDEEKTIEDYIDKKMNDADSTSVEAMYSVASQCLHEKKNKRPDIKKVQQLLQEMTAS
Protocol Details: 2-hour 1 mM ATP IRAK4 Biochemical assay (as above, but with 100 pM IRAK4 and 1 mM ATP)
Conditions: IRAK4 MSD BIOCHEMICAL (1 mM ATP) IC50 (μM), 100 pM IRAK4, 2 hours
Reported Metric: IC50 (µM)
Write the number in µM without appending the unit.

**Query** Recorded IC50 for COc1ccccc1C(=O)Nc1cn2cc(C34CCC(C)(C3)OC4)nc2c(OC)n1 (stereo not shown) [Example 465, 2,2,2-trifluoroacetate] , please?
**Result** 0.037

**Query** Recorded IC50 for CCOc1cc2nc([C@H](C)[C@@H]3CCOC3)cn2cc1NC(=O)c1cccc(C(F)(F)F)n1 (single isomer, unassigned) [Example 138] , please?
**Result** 0.001

**Query** Recorded IC50 for COc1ncccc1C(=O)Nc1cn2cc(C34COC(C)(C3)C4)nc2c(OC)n1 [Example 447, 2,2,2-trifluoroacetate] , please?
**Result** 0.015

**Query** Recorded IC50 for CCOc1cc2nc(C(C)C#N)cn2cc1NC(=O)c1cccc(C(F)F)n1 (stereo not shown) [Example 316] , please?
**Result** 0.003

###

System Under Test: IRAK4 (Homo sapiens)
Protocol Details: 2-hour 1 mM ATP IRAK4 Biochemical assay (as above, but with 100 pM IRAK4 and 1 mM ATP)
Conditions: IRAK4 MSD BIOCHEMICAL (1 mM ATP) IC50 (μM), 100 pM IRAK4, 2 hours
Kindly supply the reported log10 IC50 values for the records listed here.
Scale: decimal log of IC50, IC50 in µM.

**Query** Recorded log10 IC50 for CCOc1cc2nc(C34CC(C#N)(C3)C4)cn2cc1NC(=O)c1cccc(C(F)(F)F)n1 [Example 521, 2,2,2-trifluoroacetate] , please?
**Result** -3.00

**Query** Recorded log10 IC50 for CC1(COc2cc3nc(C[C@@H]4CCOC4)cn3cc2NC(=O)c2cccc(C(F)(F)F)n2)COC1 (single isomer, unassigned) , please?
**Result** -2.30

**Query** Recorded log10 IC50 for CCOc1cc2nc(C3C[C@@H](C)O[C@@H](C)C3)cn2cc1NC(=O)c1cccc(C(F)(F)F)n1 (relative stereo) , please?
**Result** -3.00

**Query** Recorded log10 IC50 for COc1nc(NC(=O)c2ccn(CC(C)C)n2)cn2cc(C3CCOCC3)nc12 , please?
**Result** -0.69

**Query** Recorded log10 IC50 for O=C(Nc1cn2cc(C3CCOCC3)nc2cc1OC1COC1)c1cccc(C(F)F)n1 , please?
**Result** -2.40

**Query** Recorded log10 IC50 for COc1ncccc1C(=O)Nc1cn2cc(C34COC(C)(C3)C4)nc2cc1OC(C)C(F)(F)F (single isomer, unassigned) [Example 319] , please?
**Result** -3.00

**Query** Recorded log10 IC50 for CCOc1cc2nc(C34CC(CO)(C3)C4)cn2cc1NC(=O)c1cccc(C(F)F)n1 , please?
**Result** -3.00

**Query** Recorded log10 IC50 for CC12CCC(c3cn4cc(NC(=O)c5coc(C6CC6)n5)nc(OC5CCC5)c4n3)(CO1)C2 (stereo not shown) , please?
**Result** -2.22

**Query** Recorded log10 IC50 for CCOc1cc2nc(C34CC(OC)(C3)C4)cn2cc1NC(=O)c1cccc(C(F)F)n1 , please?
**Result** -3.00

**Query** Recorded log10 IC50 for C[C@@H]1C[C@@H](Oc2cc3nc(C4CCOCC4)cn3cc2NC(=O)c2cccc(C(F)F)n2)CCO1 (relative stereo) , please?
**Result** -3.00

**Query** Recorded log10 IC50 for CCOc1cc2nc([C@H]3C[C@H](O)C3)cn2cc1NC(=O)c1cccc(C(F)F)n1 , please?
**Result** -3.00

**Query** Recorded log10 IC50 for CCOc1cc2nc(C3(OCC)CCOCC3)cn2cc1NC(=O)c1cccc(C(F)F)n1 , please?
**Result** -2.52

**Query** Recorded log10 IC50 for CCOc1cc2nc(CC(F)CO)cn2cc1NC(=O)c1cccc(C(F)F)n1 (stereo not shown) , please?
**Result** -2.40

**Query** Recorded log10 IC50 for CCOc1cc2nc([C@H]3C[C@@H](OC)C3)cn2cc1NC(=O)c1cccc(C(F)F)n1 , please?
**Result** -2.70

**Query** Recorded log10 IC50 for CC(C)Oc1cc2nc(C3CCOCC3)c(Cl)n2cc1NC(=O)c1cccc(C(F)F)n1 , please?
**Result** -1.96

**Query** Recorded log10 IC50 for CCOc1nc(NC(=O)c2cccc(C)n2)cn2cc(C3CCOCC3)nc12 [Example 474, 2,2,2-trifluoroacetate] , please?
**Result** -1.60

**Query** Recorded log10 IC50 for COc1nc(NC(=O)c2cccc(C)n2)cn2cc(C3CCOCC3)nc12 , please?
**Result** -1.37

**Query** Recorded log10 IC50 for COc1nc(NC(=O)c2cccc(C)c2F)cn2cc(C34CCC(C)(C3)OC4)nc12 (stereo not shown) [Example 467, 2,2,2-trifluoroacetate] , please?
**Result** -1.29

**Query** Recorded log10 IC50 for COc1ncccc1C(=O)Nc1cn2cc(C34COC(C)(C3)C4)nc2c(OC(C)C)n1 , please?
**Result** -2.22

**Query** Recorded log10 IC50 for CN1CCC(Oc2cc3nc(C4CCOCC4)cn3cc2NC(=O)c2cccc(C(F)F)n2)C1=O (stereo not shown) , please?
**Result** -2.70

**Query** Recorded log10 IC50 for CCOc1cc2nc(C3CCCC(OC)C3)cn2cc1NC(=O)c1cccc(C(F)F)n1 (stereo not shown) , please?
**Result** -3.00

**Query** Recorded log10 IC50 for CC12CC(c3cn4cc(NC(=O)c5cccc(C(F)F)n5)nc(O)c4n3)(CO1)C2 , please?
**Result** -1.22

**Query** Recorded log10 IC50 for CCOc1cc2nc(C3CCOCC3)cn2cc1NC(=O)c1ccc(F)cn1 , please?
**Result** -1.26

**Query** Recorded log10 IC50 for CCOc1nc(NC(=O)c2cccc(C(F)F)n2)cn2cc(C3CCOCC3)nc12 [Example 475, 2,2,2-trifluoroacetate] , please?
**Result** -2.10

**Query** Recorded log10 IC50 for CC(C)Oc1nc2nc(C34COC(C)(C3)C4)cn2cc1NC(=O)c1ccn(C)n1 , please?
**Result** -2.22

**Query** Recorded log10 IC50 for CC(C)Oc1c(NC(=O)c2cnn3cccnc23)cn2cc(C34COC(C)(C3)C4)nc2c1F , please?
**Result** -3.00

**Query** Recorded log10 IC50 for COc1cc(NC(=O)c2cccc(C(F)F)n2)cn2cc(C3CCOC(C)(C)C3)nc12 (stereo not shown) [Example 510, 2,2,2-trifluoroacetate] , please?
**Result** -2.70

**Query** Recorded log10 IC50 for COc1nc(NC(=O)c2cccc(C(F)(F)F)n2)cn2cc(C3CCOCC3)nc12 [Example 451, 2,2,2-trifluoroacetate] , please?
**Result** -1.18

**Query** Recorded log10 IC50 for CCOc1cc2nc(C(C)(C)C#N)cn2cc1NC(=O)c1cccc(C(F)F)n1 , please?
**Result** -2.40

**Query** Recorded log10 IC50 for CCOc1cc2nc(CC3CCOC3)cn2cc1NC(=O)c1cccn(C)c1=O (stereo not shown) , please?
**Result** -1.55

**Query** Recorded log10 IC50 for CCOc1cc2nc(C(C)(C)C#N)cn2cc1NC(=O)c1coc(C2CC2)n1 , please?
**Result** -2.30
